# Test system: Pasteurella multocida 60A
# RUN DESCRIPTION: MIC, broth-dilution microtiter test, Pasteurella multocida 60A
# Format: cell-based
# REPORTED CONDITIONS: Pasteurella multocida 60A; avian isolate; broth-dilution microtiter; read-out: MIC
READOUT KIND: MIC

{"columns": ["COMPOUND", "MIC"],
 "data": [
  ["CCC1OC(=O)CC(O)C(C)C(OC2OC(C)C(OC3CC(C)(O)C(O)C(C)O3)C(N(C)C)C2O)C(CCOc2cccc(N(C)C)c2)CC(C)C(=O)C=CC(C)=CC1COC1OC(C)C(O)C(OC)C1OC (centres unmarked) [Compound 16]", "> 50 µg/mL"],
  ["CCOC(=O)NN(CCC1CC(C)C(=O)C=CC(C)=CC(COC2OC(C)C(O)C(OC)C2OC)C(CC)OC(=O)CC(O)C(C)C1OC1OC(C)C(OC2CC(C)(O)C(O)C(C)O2)C(N(C)C)C1O)C(=O)OCC (centres unmarked) [Compound 9]", "> 50 µg/mL"],
  ["CCC1OC(=O)CC(O)C(C)C(OC2OC(C)C(OC3CC(C)(O)C(O)C(C)O3)C(N(C)C)C2O)C(CCN=[N+]=[N-])CC(C)C(=O)C=CC(C)=CC1COC1OC(C)C(O)C(OC)C1OC (centres unmarked) [Compound 2, 20-DH-DO-20-Azidotylosin]", "> 50 µg/mL"],
  ["CCC1OC(=O)CC(O)C(C)C(OC2OC(C)C(O)C(N(C)C)C2O)C(CCSc2nnnn2C)CC(C)C(=O)C=CC(C)=CC1COC1OC(C)C(O)C(OC)C1OC (centres unmarked) [Compound 24]", "12.5 µg/mL"]
]}

Now for a further compound.
[ask] Quick check: MIC of CCC1OC(=O)CC(O)C(C)C(OC2OC(C)C(OC3CC(C)(O)C(O)C(C)O3)C(N(C)C)C2O)C(CCOS(=O)(=O)c2ccc(C)cc2)CC(C)C(=O)C=CC(C)=CC1COC1OC(C)C(O)C(O)C1OC (centres unmarked) [Compound 56, 20-DH-20-O-(p-Toluenesulfonyl)macrocin] ?
[reply] > 50 µg/mL

----------
# Tested on: Staphylococcus aureus V41
# RUN DESCRIPTION: MIC, standard agar-dilution assay, Staphylococcus aureus V41
# Type: cell-based
# REPORTED CONDITIONS: Staphylococcus aureus V41; penicillin-resistant strain; agar dilution
READOUT KIND: MIC (µg/mL)
Express your answer in µg/mL, writing the number without its unit.

{"columns": ["MOLECULE", "MIC / µg/mL"],
 "data": [
  ["CCC1OC(=O)CC(O)C(C)C(OC2OC(C)C(O)C(N(C)C)C2O)C(CCOc2cccnc2)CC(C)C(=O)C=CC(C)=CC1COC1OC(C)C(O)C(OC)C1OC (stereo not shown)", 0.5],
  ["CCC1OC(=O)CC(O)C(C)C(OC2OC(C)C(O)C(N(C)C)C2O)C(CCOc2ccc(-c3ccccc3)cc2)CC(C)C(=O)C=CC(C)=CC1COC1OC(C)C(O)C(OC)C1OC (stereo not shown)", 0.25],
  ["CCC1OC(=O)CC(O)C(C)C(OC2OC(C)C(O)C(N(C)C)C2O)C(CCOc2ccc(CN3CCCCCC3)cc2)CC(C)C(=O)C=CC(C)=CC1COC1OC(C)C(O)C(OC)C1OC (stereo not shown)", 0.1]
]}

Kindly consider the entry below.
[ask] Query for Staphylococcus aureus V41: what MIC does the record show for CCC1OC(=O)CC(O)C(C)C(OC2OC(C)C(O)C(N(C)C)C2O)C(CCOc2ncnc3ccccc23)CC(C)C(=O)C=CC(C)=CC1COC1OC(C)C(O)C(OC)C1OC (stereo not shown) ?
[reply] 0.25

----------
# Tested on: Streptococcus bovis 80
# RUN DESCRIPTION: MIC, broth-dilution microtiter test, Streptococcus bovis 80
# Type: cell-based
# REPORTED CONDITIONS: Streptococcus equinus; Streptococcus bovis 80; broth-dilution microtiter; read-out: MIC
# Text: The MIC's in Table X were obtained using conventional broth-dilution microtiter tests.
Quick reference: MIC of the listed items.
Just the number please, in µg/mL, no unit attached.

[ask] Fill in: MIC of CCC1OC(=O)CC(O)C(C)C(OC2OC(C)C(OC3CC(C)(O)C(O)C(C)O3)C(N(C)C)C2O)C(CCNC(=O)Cc2ccccc2)CC(C)C(=O)C=CC(C)=CC1COC1OC(C)C(O)C(OC)C1OC (stereo not drawn) is ___
[reply] 6.25

[ask] And the next one, CCC1OC(=O)CC(O)C(C)C(OC2OC(C)C(OC3CC(C)(O)C(O)C(C)O3)C(N(C)C)C2O)C(CCI)CC(C)C(=O)C=CC(C)=CC1COC1OC(C)C(O)C(O)C1OC (stereo not drawn) ?
[reply] 50

----------
# Test system: Mycoplasma synoviae
# RUN DESCRIPTION: MIC, broth-dilution microtiter test, Mycoplasma synoviae
# Format: cell-based
# REPORTED CONDITIONS: Mycoplasmopsis synoviae
READOUT KIND: log10 of MIC (log10 of the value in µg/mL)
Values are log10 of MIC in µg/mL.

Below, each entry is followed by its recorded log10 of MIC result.
{"columns": ["COMPOUND", "READOUT VALUE"],
 "data": [
  ["CCC1OC(=O)CC(O)C(C)C(OC2OC(C)C(O)C(N(C)C)C2O)C(CCOc2cccc(N(C)C)c2)CC(C)C(=O)C=CC(C)=CC1COC1OC(C)C(O)C(OC)C1OC (stereo not drawn) [Compound 39]", 0.19],
  ["CCC1OC(=O)CC(O)C(C)C(OC2OC(C)C(OC3CC(C)(O)C(O)C(C)O3)C(N(C)C)C2O)C(CCOc2ccc([N+](=O)[O-])cc2)CC(C)C(=O)C=CC(C)=CC1COC1OC(C)C(O)C(OC)C1OC (stereo not drawn) [Compound 12, 20-DH-20-O-(p-Nitrophenyl)tylosin]", 0.19],
  ["CCC1OC(=O)CC(O)C(C)C(OC2OC(C)C(O)C(N(C)C)C2O)C(CC2Nc3ccccc3S2)CC(C)C(=O)C=CC(C)=CC1COC1OC(C)C(O)C(OC)C1OC (stereo not drawn) [Compound 75]", 0.19],
  ["CCC1OC(=O)CC(O)C(C)C(OC2OC(C)C(OC3CC(C)(O)C(O)C(C)O3)C(N(C)C)C2O)C(CCOc2ccc(C=O)cc2)CC(C)C(=O)C=CC(C)=CC1COC1OC(C)C(O)C(OC)C1OC (stereo not drawn) [Compound 17, 20-DH-20-O-(p-Formylphenyl)tylosin]", 0.80],
  ["CCC1OC(=O)CC(O)C(C)C(OC2OC(C)C(O)C(N(C)C)C2O)C(CCOc2ccc([N+](=O)[O-])cc2)CC(C)C(=O)C=CC(C)=CC1COC1OC(C)C(O)C(OC)C1OC (stereo not drawn) [Compound 34, 20-DH-20-O-(p-Nitrophenyl)desmycosin]", -0.11],
  ["CCC1OC(=O)CC(O)C(C)C(OC2OC(C)C(O)C(N(C)C)C2O)C(CCOc2ccc(OC)cc2)CC(C)C(=O)C=CC(C)=CC1COC1OC(C)C(O)C(OC)C1OC (stereo not drawn) [Compound 35, 20-DH-20-O-(p-Methoxyphenyl)desmycosin]", -0.11]
]}

[ask] Request - read-out log10 of MIC | tested on Mycoplasma synoviae | compound CCC1OC(=O)CC(O)C(C)C(OC2OC(C)C(OC3CC(C)(O)C(O)C(C)O3)C(N(C)C)C2O)C(CCOC(C(F)(F)F)C(F)(F)F)CC(C)C(=O)C=CC(C)=CC1COC1OC(C)C(O)C(OC)C1OC (stereo not drawn) [Compound 19]
[reply] 1.10

[ask] Entry to check: CCC1OC(=O)CC(O)C(C)C(OC2OC(C)C(OC3CC(C)(O)C(O)C(C)O3)C(N(C)C)C2O)C(CCN2C(=O)c3ccccc3C2=O)CC(C)C(=O)C=CC(C)=CC1COC1OC(C)C(O)C(OC)C1OC (stereo not drawn) [Compound 1, 20-DH-DO-20-N-Phthalimidotylosin]
[reply] 0.80

[ask] Also CCC1OC(=O)CC(O)C(C)C(OC2OC(C)C(OC3CC(C)(O)C(O)C(C)O3)C(N(C)C)C2O)C(CCSc2nnnn2C)CC(C)C(=O)C=CC(C)=CC1COC1OC(C)C(O)C(OC)C1OC (stereo not drawn) [Compound 5] , if possible.
[reply] 0.49

----------
# Test system: Pasteurella multocida 17E
# RUN DESCRIPTION: MIC, broth-dilution microtiter test, Pasteurella multocida 17E
# Assay type: cell-based
# REPORTED CONDITIONS: Pasteurella multocida 17E; bovine isolate; broth-dilution microtiter
Below, each of the compounds is paired with its reported MIC value.
Answer format: numeric, µg/mL implied, no suffix.

Sample records with MIC:
{"columns": ["COMPOUND", "READOUT VALUE"],
 "data": [
  ["CCC1OC(=O)CC(O)C(C)C(OC2OC(C)C(O)C(N(C)C)C2O)C(CCN2C(=O)c3ccccc3C2=O)CC(C)C(=O)C=CC(C)=CC1COC1OC(C)C(O)C(OC)C1OC (stereo not shown)", 25],
  ["CCC1OC(=O)CC(O)C(C)C(OC2OC(C)C(OC(C)=O)C(N(C)C)C2OC(C)=O)C(CCOc2ccccc2)CC(C)C(=O)C=CC(C)=CC1COC1OC(C)C(O)C(OC)C1OC (stereo not shown)", 25]
]}

Alright, here's another compound for you.
[ask] MIC lookup needed for CCC1OC(=O)CC(O)C(C)C(OC2OC(C)C(O)C(N(C)C)C2O)C(CCOc2cccc(Oc3ccccc3)c2)CC(C)C(=O)C=CC(C)=CC1COC1OC(C)C(O)C(OC)C1OC (stereo not shown) , thanks.
[reply] 25
